assay: activity coefficient (dimensionless); of the first substance listed, at infinite dilution; xn = mol fraction of the nth substance listed; settings: 338.15 K; 101 kPa; Liquid; Chromatography; x1 = 0
OBSERVATION_TYPE: activity coefficient
Note: the reply should be a number with no unit written.

Please give measured activity coefficient of the following entry: CCCCCCCCC [nonane] + CCCCCCOCn1cc[n+](C)c1.O=S(=O)([N-]S(=O)(=O)C(F)(F)F)C(F)(F)F
13.8

Please give measured activity coefficient of the following entry: CCO [ethanol] + CCCCCCOCn1cc[n+](C)c1.O=S(=O)([N-]S(=O)(=O)C(F)(F)F)C(F)(F)F
1.1

Please give measured activity coefficient of the following entry: c1ccccc1 [benzene] + CCCCCCOCn1cc[n+](C)c1.O=S(=O)([N-]S(=O)(=O)C(F)(F)F)C(F)(F)F
0.82

Please give measured activity coefficient of the following entry: Cc1cccc(C)c1 [1,3-dimethylbenzene] + CCCCCCOCn1cc[n+](COCCCCCC)c1.O=S(=O)([N-]S(=O)(=O)C(F)(F)F)C(F)(F)F
0.948

Please give measured activity coefficient of the following entry: CC(C)=O [acetone] + CCCCCCOCn1cc[n+](C)c1.O=S(=O)([N-]S(=O)(=O)C(F)(F)F)C(F)(F)F
0.328

Please give measured activity coefficient of the following entry: CCCO [propan-1-ol] + CCCCCCOCn1cc[n+](COCCCCCC)c1.O=S(=O)([N-]S(=O)(=O)C(F)(F)F)C(F)(F)F
0.929

Please give measured activity coefficient of the following entry: O [water] + CCCCCCOCn1cc[n+](C)c1.O=S(=O)([N-]S(=O)(=O)C(F)(F)F)C(F)(F)F
2.57

---

assay: activity coefficient (dimensionless); of the first substance listed, at infinite dilution; xn = mol fraction of the nth substance listed; conditions: 368.15 K; 101 kPa; Liquid; Chromatography; x1 = 0
OBSERVATION_TYPE: activity coefficient
Note: the reply should be a number with no unit written.

Please give measured activity coefficient of the following entry: c1ccccc1 [benzene] + CCCCCCOCn1cc[n+](COCCCCCC)c1.O=S(=O)([N-]S(=O)(=O)C(F)(F)F)C(F)(F)F
0.606

Please give measured activity coefficient of the following entry: Cc1cccc(C)c1 [1,3-dimethylbenzene] + CCCCCCOCn1cc[n+](C)c1.O=S(=O)([N-]S(=O)(=O)C(F)(F)F)C(F)(F)F
1.49

Please give measured activity coefficient of the following entry: COC(C)(C)C [2-methoxy-2-methylpropane] + CCCCCCOCn1cc[n+](C)c1.O=S(=O)([N-]S(=O)(=O)C(F)(F)F)C(F)(F)F
1.46

Please give measured activity coefficient of the following entry: C#CCCC [1-pentyne] + CCCCCCOCn1cc[n+](C)c1.O=S(=O)([N-]S(=O)(=O)C(F)(F)F)C(F)(F)F
1.61

Please give measured activity coefficient of the following entry: Cc1ccc(C)cc1 [1,4-dimethylbenzene] + CCCCCCOCn1cc[n+](COCCCCCC)c1.O=S(=O)([N-]S(=O)(=O)C(F)(F)F)C(F)(F)F
0.962

Please give measured activity coefficient of the following entry: C#CCCCCC [1-heptyne] + CCCCCCOCn1cc[n+](COCCCCCC)c1.O=S(=O)([N-]S(=O)(=O)C(F)(F)F)C(F)(F)F
1.42

Please give measured activity coefficient of the following entry: Cc1ccccc1 [toluene] + CCCCCCOCn1cc[n+](COCCCCCC)c1.O=S(=O)([N-]S(=O)(=O)C(F)(F)F)C(F)(F)F
0.761

---

I'd appreciate it if you could supply activity coefficient values for the items below.
assay: activity coefficient (dimensionless); of the first substance listed, at infinite dilution; xn = mol fraction of the nth substance listed; details: 368.15 K; 101 kPa; Liquid; Chromatography; x1 = 0
Note: the reply should be a number with no unit written.

Please give measured activity coefficient of the following entry: CCCCO [butan-1-ol] + CCCCCCOCn1cc[n+](COCCCCCC)c1.O=S(=O)([N-]S(=O)(=O)C(F)(F)F)C(F)(F)F
0.82

Please give measured activity coefficient of the following entry: Cc1ccccc1 [toluene] + CCCCCCOCn1cc[n+](C)c1.O=S(=O)([N-]S(=O)(=O)C(F)(F)F)C(F)(F)F
1.11

Please give measured activity coefficient of the following entry: O [water] + CCCCCCOCn1cc[n+](COCCCCCC)c1.O=S(=O)([N-]S(=O)(=O)C(F)(F)F)C(F)(F)F
1.83

Please give measured activity coefficient of the following entry: Cc1cccc(C)c1 [1,3-dimethylbenzene] + CCCCCCOCn1cc[n+](COCCCCCC)c1.O=S(=O)([N-]S(=O)(=O)C(F)(F)F)C(F)(F)F
0.955

---

I'd appreciate it if you could supply activity coefficient values for the items below.
experiment: activity coefficient (dimensionless); of the first substance listed, at infinite dilution; xn = mol fraction of the nth substance listed; conditions: 298.15 K; 101 kPa; Liquid; Chromatography; x1 = 0
Note: the reply should be a number with no unit written.

Please give measured activity coefficient of the following entry: CCCCCCCCCC [decane] + CCCCCCOCn1cc[n+](C)c1.O=S(=O)([N-]S(=O)(=O)C(F)(F)F)C(F)(F)F
23.5

Please give measured activity coefficient of the following entry: CO [methanol] + CCCCCCOCn1cc[n+](C)c1.O=S(=O)([N-]S(=O)(=O)C(F)(F)F)C(F)(F)F
1.36

Please give measured activity coefficient of the following entry: C=CCCCCCC [oct-1-ene] + CCCCCCOCn1cc[n+](C)c1.O=S(=O)([N-]S(=O)(=O)C(F)(F)F)C(F)(F)F
7.97

Please give measured activity coefficient of the following entry: O [water] + CCCCCCOCn1cc[n+](C)c1.O=S(=O)([N-]S(=O)(=O)C(F)(F)F)C(F)(F)F
4.37

Please give measured activity coefficient of the following entry: CCCOCCC [dipropyl ether] + CCCCCCOCn1cc[n+](COCCCCCC)c1.O=S(=O)([N-]S(=O)(=O)C(F)(F)F)C(F)(F)F
1.49

Please give measured activity coefficient of the following entry: c1ccccc1 [benzene] + CCCCCCOCn1cc[n+](C)c1.O=S(=O)([N-]S(=O)(=O)C(F)(F)F)C(F)(F)F
0.802

Please give measured activity coefficient of the following entry: C1CCCCCCC1 [cyclooctane] + CCCCCCOCn1cc[n+](COCCCCCC)c1.O=S(=O)([N-]S(=O)(=O)C(F)(F)F)C(F)(F)F
3.2

---

I'd appreciate it if you could supply activity coefficient values for the items below.
test: activity coefficient (dimensionless); of the first substance listed, at infinite dilution; xn = mol fraction of the nth substance listed; settings: 348.15 K; 101 kPa; Liquid; Chromatography; x1 = 0
Note: the reply should be a number with no unit written.

Please give measured activity coefficient of the following entry: C=CCCCCC [1-heptene] + CCCCCCOCn1cc[n+](COCCCCCC)c1.O=S(=O)([N-]S(=O)(=O)C(F)(F)F)C(F)(F)F
2.45

Please give measured activity coefficient of the following entry: Cc1ccccc1C [1,2-dimethylbenzene] + CCCCCCOCn1cc[n+](C)c1.O=S(=O)([N-]S(=O)(=O)C(F)(F)F)C(F)(F)F
1.35

Please give measured activity coefficient of the following entry: CCCCCC [hexane] + CCCCCCOCn1cc[n+](C)c1.O=S(=O)([N-]S(=O)(=O)C(F)(F)F)C(F)(F)F
6.71

Please give measured activity coefficient of the following entry: CCOCC [diethyl ether] + CCCCCCOCn1cc[n+](C)c1.O=S(=O)([N-]S(=O)(=O)C(F)(F)F)C(F)(F)F
1.43

Please give measured activity coefficient of the following entry: C#CCCCCCC [1-octyne] + CCCCCCOCn1cc[n+](COCCCCCC)c1.O=S(=O)([N-]S(=O)(=O)C(F)(F)F)C(F)(F)F
1.67

Please give measured activity coefficient of the following entry: C1CCCC1 [cyclopentane] + CCCCCCOCn1cc[n+](C)c1.O=S(=O)([N-]S(=O)(=O)C(F)(F)F)C(F)(F)F
3.38

Please give measured activity coefficient of the following entry: c1ccsc1 [thiophene] + CCCCCCOCn1cc[n+](COCCCCCC)c1.O=S(=O)([N-]S(=O)(=O)C(F)(F)F)C(F)(F)F
0.562

---

assay: activity coefficient (dimensionless); of the first substance listed, at infinite dilution; xn = mol fraction of the nth substance listed; details: 328.15 K; 101 kPa; Liquid; Chromatography; x1 = 0
OBSERVATION_TYPE: activity coefficient
Note: the reply should be a number with no unit written.

Please give measured activity coefficient of the following entry: COC(C)(C)C [2-methoxy-2-methylpropane] + CCCCCCOCn1cc[n+](COCCCCCC)c1.O=S(=O)([N-]S(=O)(=O)C(F)(F)F)C(F)(F)F
0.821

Please give measured activity coefficient of the following entry: c1ccccc1 [benzene] + CCCCCCOCn1cc[n+](C)c1.O=S(=O)([N-]S(=O)(=O)C(F)(F)F)C(F)(F)F
0.816

Please give measured activity coefficient of the following entry: C#CCCC [1-pentyne] + CCCCCCOCn1cc[n+](C)c1.O=S(=O)([N-]S(=O)(=O)C(F)(F)F)C(F)(F)F
1.58

Please give measured activity coefficient of the following entry: CCCO [propan-1-ol] + CCCCCCOCn1cc[n+](C)c1.O=S(=O)([N-]S(=O)(=O)C(F)(F)F)C(F)(F)F
1.36
